Could you please report measured Lethal dose for the items listed next?
assay.explanation: Lethal dose defined as as the lowest dose resulting in the death of a single mouse
Type: toxicity
test.settings: in vivo
Give bare numbers, in mg/kg.

Query :: What measured Lethal dose goes with "C[C@@H](O)[C@H]1C(=O)N2C(C(=O)O)=C(CN3c4cccc5c(CCC[N+]67CC[N+](CC(N)=O)(CC6)CC7)ccc(c45)S3(=O)=O)[C@H](C)[C@H]12.[Cl-].[Cl-]" ?
Result :: 500

For the next question, use this molecule.
Query :: # lookup: Lethal dose of "C[C@@H](O)[C@H]1C(=O)N2C(C(=O)O)=C(CN3c4cccc5cc(CC[N+]67CC[N+](CC(=O)Nc8ccccc8)(CC6)CC7)cc(c45)S3(=O)=O)[C@H](C)[C@H]12.[Cl-].[Cl-]"
Result :: 245

----------
experimental.system: Dipeptidase 1 (Sus scrofa) (UniProt P22412)
Sequence (P22412 whole entry): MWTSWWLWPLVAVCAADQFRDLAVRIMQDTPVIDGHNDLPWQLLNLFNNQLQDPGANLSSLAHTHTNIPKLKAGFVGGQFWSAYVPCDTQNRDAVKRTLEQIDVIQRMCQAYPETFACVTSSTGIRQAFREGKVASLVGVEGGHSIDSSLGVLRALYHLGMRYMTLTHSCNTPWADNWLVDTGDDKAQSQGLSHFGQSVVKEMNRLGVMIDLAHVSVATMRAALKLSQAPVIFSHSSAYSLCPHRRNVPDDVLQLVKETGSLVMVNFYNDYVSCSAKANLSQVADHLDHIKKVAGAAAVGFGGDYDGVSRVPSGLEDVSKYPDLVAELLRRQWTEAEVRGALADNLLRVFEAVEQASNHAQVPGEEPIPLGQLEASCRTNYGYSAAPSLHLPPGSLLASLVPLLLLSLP
assay.explanation: Susceptibility to hog kidney dehydropeptidase-I.
Type: functional, tissue-based
Parameters: reference not given here
assay.readout: Activity
One number for each entry.

Query :: Name the reported Activity value associated with the compound "C[C@@H](O)[C@H]1C(=O)N2C(C(=O)O)=C(CN3c4cccc5c(CCC[N+]67CC[N+](CC(N)=O)(CC6)CC7)ccc(c45)S3(=O)=O)[C@H](C)[C@H]12.[Cl-].[Cl-]"
Result :: 2.64

Query :: What does the data say about its Activity? Entry: "C[C@@H](O)[C@H]1C(=O)N2C(C(=O)O)=C(CN3c4cccc5cc(CC[N+]67CC[N+](CC(N)=O)(CC6)CC7)cc(c45)S3(=O)=O)[C@H](C)[C@H]12.[Cl-].[Cl-]"
Result :: 0.75

Query :: Look up Activity: "C[C@@H](O)[C@H]1C(=O)N2C(C(=O)O)=C(CN3c4cccc5c(CC[N+]67CC[N+](CCCO)(CC6)CC7)ccc(c45)S3(=O)=O)[C@H](C)[C@H]12.[Cl-].[Cl-]"
Result :: 1.9

Items follow; give Activity for each.
1. C[C@@H](O)[C@H]1C(=O)N2C(C(=O)O)=C(CN3c4cccc5ccc(C[N+]67CC[N+](CC(N)=O)(CC6)CC7)c(c45)S3(=O)=O)[C@H](C)[C@H]12.[Cl-].[Cl-]
2. C[C@@H](O)[C@H]1C(=O)N2C(C(=O)O)=C(CN3c4cccc5cc(CC[N+]67CC[N+](CCCO)(CC6)CC7)cc(c45)S3(=O)=O)[C@H](C)[C@H]12.[Cl-].[Cl-]
3. C[C@@H](O)[C@H]1C(=O)N2C(C(=O)O)=C(CN3c4ccc(CC[N+]56CC[N+](CC(N)=O)(CC5)CC6)c5cccc(c45)S3(=O)=O)[C@H](C)[C@H]12.[Cl-].[Cl-]
4. C[C@@H](O)[C@H]1C(=O)N2C(C(=O)O)=C(CN3c4cccc5cc(CCC[N+]67CC[N+](CC(N)=O)(CC6)CC7)cc(c45)S3(=O)=O)[C@H](C)[C@H]12.[Cl-].[Cl-]
5. C[C@@H](O)[C@H]1C(=O)N2C(C(=O)O)=C(CN3c4ccc(C[N+]56CC[N+](CC(N)=O)(CC5)CC6)c5cccc(c45)S3(=O)=O)[C@H](C)[C@H]12.[Cl-].[Cl-]
6. C[C@@H](O)[C@H]1C(=O)N2C(C(=O)O)=C(SCCNC=N)C[C@H]12 [IMIPENEM ANHYDROUS]
7. C[C@@H](O)[C@H]1C(=O)N2C(C(=O)O)=C(CN3c4cccc5c(CC[N+]67CC[N+](CC(N)=O)(CC6)CC7)ccc(c45)S3(=O)=O)[C@H](C)[C@H]12.[Cl-].[Cl-]
8. C[C@@H](O)[C@H]1C(=O)N2C(C(=O)O)=C(CN3c4cccc5c(CC[N+]67CC[N+](CC(=O)Nc8ccccc8)(CC6)CC7)ccc(c45)S3(=O)=O)[C@H](C)[C@H]12.[Cl-].[Cl-]

Result ::
[0.01, 0.85, 0.74, 1.25, 0.81, 1, 1.77, 1.4]

# batch size: 3; output Activity per entry
1. C[C@@H](O)[C@H]1C(=O)N2C(C(=O)O)=C(CN3c4cccc5c(C[N+]67CC[N+](CC(N)=O)(CC6)CC7)ccc(c45)S3(=O)=O)[C@H](C)[C@H]12.[Cl-].[Cl-]
2. C[C@@H](O)[C@H]1C(=O)N2C(C(=O)O)=C(CN3c4cccc5cc(CC[N+]67CC[N+](CC(=O)Nc8ccccc8)(CC6)CC7)cc(c45)S3(=O)=O)[C@H](C)[C@H]12.[Cl-].[Cl-]
3. C[C@@H](O)[C@H]1C(=O)N2C(C(=O)O)=C(CN3c4cccc5ccc(CC[N+]67CC[N+](CC(N)=O)(CC6)CC7)c(c45)S3(=O)=O)[C@H](C)[C@H]12.[Cl-].[Cl-]

Result ::
1. 0.74
2. 0.64
3. 0

Quick request: Activity for each listed item, please.
1. CCC[N+]12CC[N+](CCc3ccc4c5c(cccc35)N(CC3=C(C(=O)O)N5C(=O)[C@H]([C@@H](C)O)[C@H]5[C@H]3C)S4(=O)=O)(CC1)CC2.[Cl-].[Cl-]
2. C[C@@H](O)[C@H]1C(=O)N2C(C(=O)O)=C(CN3c4cccc5cc(C[N+]67CC[N+](CC(N)=O)(CC6)CC7)cc(c45)S3(=O)=O)[C@H](C)[C@H]12.[Cl-].[Cl-]

Result ::
1. 1.93
2. 0.21

Query :: Entry "C[C@@H](O)[C@H]1C(=O)N2C(C(=O)[O-])=C(CN3c4cccc5cccc(c45)S3(=O)=O)[C@H](C)[C@H]12.[Na+]" has what Activity?
Result :: 0.99

----------
Test system: Streptococcus pneumoniae
assay.explanation: In vitro antibacterial activity against PRSP.
Assay type: functional
assay.readout: MIC
Please state the value followed by its unit.

Query :: Which value of MIC has been reported for "C[C@@H](O)[C@H]1C(=O)N2C(C(=O)O)=C(CN3c4cccc5cc(CCC[N+]67CC[N+](CC(N)=O)(CC6)CC7)cc(c45)S3(=O)=O)[C@H](C)[C@H]12.[Cl-].[Cl-]" in the records?
Result :: 0.5 µg/mL

Query :: Form field: reported MIC of "C[C@@H](O)[C@H]1C(=O)N2C(C(=O)O)=C(CN3c4cccc5cc(C[N+]67CC[N+](CC(N)=O)(CC6)CC7)cc(c45)S3(=O)=O)[C@H](C)[C@H]12.[Cl-].[Cl-]"
Result :: 0.5 µg/mL

With those in mind, consider the next compound.
Query :: Param item = "C[C@@H](O)[C@H]1C(=O)N2C(C(=O)O)=C(CN3c4cccc5c(C[N+]67CC[N+](CC(N)=O)(CC6)CC7)ccc(c45)S3(=O)=O)[C@H](C)[C@H]12.[Cl-].[Cl-]" ; retrieve measured MIC.
Result :: 0.5 µg/mL

----------
Task for the reader: assign each of the following compounds its reported MIC.
System: Streptococcus pneumoniae
assay.explanation: In vitro antibacterial activity against PRSP.
Format: functional
One number for each entry, in µg/mL.

See these solved cases before continuing.
Query :: Need MIC, item "C[C@@H](O)[C@H]1C(=O)N2C(C(=O)O)=C(CN3c4ccc(C[N+]56CC[N+](CC(N)=O)(CC5)CC6)c5cccc(c45)S3(=O)=O)[C@H](C)[C@H]12.[Cl-].[Cl-]"
Result :: 1

Query :: What MIC value was documented for this compound, "C[C@@H](O)[C@H]1C(=O)N2C(C(=O)O)=C(CN3c4cccc5cc(CC[N+]67CC[N+](CC(N)=O)(CC6)CC7)cc(c45)S3(=O)=O)[C@H](C)[C@H]12.[Cl-].[Cl-]" ?
Result :: 0.17

// input: 3 compounds below; output: MIC for each
1. C[C@@H](O)[C@H]1C(=O)N2C(C(=O)O)=C(CN3c4cccc5c(CCC[N+]67CC[N+](CC(N)=O)(CC6)CC7)ccc(c45)S3(=O)=O)[C@H](C)[C@H]12.[Cl-].[Cl-]
2. C[C@@H](O)[C@H]1C(=O)N2C(C(=O)O)=C(CN3c4ccc(CC[N+]56CC[N+](CC(N)=O)(CC5)CC6)c5cccc(c45)S3(=O)=O)[C@H](C)[C@H]12.[Cl-].[Cl-]
3. C[C@@H](O)[C@H]1C(=O)N2C(C(=O)O)=C(CN3c4cccc5ccc(CC[N+]67CC[N+](CC(N)=O)(CC6)CC7)c(c45)S3(=O)=O)[C@H](C)[C@H]12.[Cl-].[Cl-]

Result ::
1. 0.25
2. 1
3. 0.35

Query :: Fill in the blank: the reported MIC of "C[C@@H](O)[C@H]1C(=O)N2C(C(=O)O)=C(CN3c4cccc5cc(CC[N+]67CC[N+](CCCO)(CC6)CC7)cc(c45)S3(=O)=O)[C@H](C)[C@H]12.[Cl-].[Cl-]" is ____.
Result :: 0.17

----------
Test system: Streptococcus pneumoniae
assay.explanation: In vitro antibacterial activity against PRSP.
Assay type: functional
assay.readout: MIC

Known MIC results, listed for orientation:
Query :: Which measured MIC value corresponds to "C[C@@H](O)[C@H]1C(=O)N2C(C(=O)O)=C(CN3c4cccc5ccc(C[N+]67CC[N+](CC(N)=O)(CC6)CC7)c(c45)S3(=O)=O)[C@H](C)[C@H]12.[Cl-].[Cl-]" ?
Result :: 0.71 µg/mL

Query :: # MIC lookup, item "C[C@@H](O)[C@H]1C(=O)N2C(C(=O)O)=C(CN3c4c(CC[N+]56CC[N+](CC(N)=O)(CC5)CC6)ccc5cccc(c45)S3(=O)=O)[C@H](C)[C@H]12.[Cl-].[Cl-]"
Result :: > 64 µg/mL

Please give MIC, item by item, for the list that follows.
1. C[C@@H](O)[C@H]1C(=O)N2C(C(=O)O)=C(CN3c4cccc5c(CC[N+]67CC[N+](CC(N)=O)(CC6)CC7)ccc(c45)S3(=O)=O)[C@H](C)[C@H]12.[Cl-].[Cl-]
2. C[C@@H](O)[C@H]1C(=O)N2C(C(=O)[O-])=C(CN3c4cccc5cccc(c45)S3(=O)=O)[C@H](C)[C@H]12.[Na+]
3. C[C@@H](O)[C@H]1C(=O)N2C(C(=O)O)=C(CN3c4cccc5c(CC[N+]67CC[N+](Cc8ccccc8)(CC6)CC7)ccc(c45)S3(=O)=O)[C@H](C)[C@H]12.[Cl-].[Cl-]

Result ::
0.17 µg/mL
0.25 µg/mL
0.35 µg/mL
